# study_target: Calcium/calmodulin-dependent protein kinase type IV (Homo sapiens, UniProt Q16566); also: in the data inactive means no Kd found up to 30 µM
# Sequence (Q16566 whole entry): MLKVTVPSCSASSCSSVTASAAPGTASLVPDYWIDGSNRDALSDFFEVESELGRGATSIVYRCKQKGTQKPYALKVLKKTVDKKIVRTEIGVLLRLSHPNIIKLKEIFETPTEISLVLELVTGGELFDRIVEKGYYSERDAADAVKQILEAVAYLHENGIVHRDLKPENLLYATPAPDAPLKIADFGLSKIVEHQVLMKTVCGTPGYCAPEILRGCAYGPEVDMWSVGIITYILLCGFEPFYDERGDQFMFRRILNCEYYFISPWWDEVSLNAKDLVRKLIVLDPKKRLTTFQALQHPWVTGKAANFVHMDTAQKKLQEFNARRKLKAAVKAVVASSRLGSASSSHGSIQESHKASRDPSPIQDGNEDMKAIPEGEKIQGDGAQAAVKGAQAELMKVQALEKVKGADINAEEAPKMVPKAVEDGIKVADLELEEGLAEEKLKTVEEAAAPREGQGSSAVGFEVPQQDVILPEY
Activity calls are given as the source filed them.
Response enum: active, inactive

Per the records of this test, what outcome belongs to CNC(=O)c1nn(C)c2c1C(C)(C)Cc1cnc(Nc3ccc(N4CCN(C)CC4)cc3)nc1-2 ?
inactive

Would you mind telling me which call this test gave Cc1cnc(NC(=O)Nc2cc(Br)c(C)cc2OC[C@@H]2CNCCO2)cn1 ?
inactive

# lookup: test call for Cn1cc(-c2cnc3ccc4ccc(CS(=O)(=O)NCc5ccccn5)cc4c(=O)c3c2)cn1
inactive

Dear all, I need the recorded test outcome for Nc1ncnc2c1c(-c1cccc(OCc3ccccc3)c1)cn2[C@H]1C[C@@H](CN2CCC2)C1 , thank you.
inactive

Name the outcome recorded for CC(=O)NCC(=O)N1[C@@H]2CC[C@H]1c1ccc(Nc3ncc(C(F)(F)F)c(NC4CCC4)n3)cc12 in the assay.
inactive

In this assay, the call recorded for COc1c(OCCCN2CCOCC2)ccc2c1N=C(NC(=O)c1cnc(N)nc1)N1CCN=C21 was what?
inactive

Outcome? O=c1[nH]ccc2cc(OC3CCNCC3)ccc12 [SAR-407899 FREE BASE]
inactive

How did this test come out for NC1(c2ccc(-c3nc4ccn5c(=O)[nH]nc5c4cc3-c3ccccc3)cc2)CCC1 ?
inactive

State the result this test recorded for O=C(Nc1nc2cccc(-c3ccc(CN4CCS(=O)(=O)CC4)cc3)n2n1)C1CC1 .
inactive

Returns: the outcome recorded for Cc1nc(Nc2n[nH]c3c2CN(C(=O)N[C@H](CN(C)C)c2ccccc2)C3(C)C)c2sccc2n1 in this assay.
active

Assay result, entry O=C1NC(=O)[C@@H](c2cn3c4c(cccc24)CCC3)[C@@H]1c1c[nH]c2ccccc12 [TIVANTINIB] — outcome?
inactive

Entry Cn1cc(-c2cnn3c(N)c(Br)c([C@@H]4CCCNC4)nc23)cn1 : call = ?
inactive

For CC(C)c1cc(CNc2nc(Nc3cc(C4CC4)[nH]n3)cc(N3CCN(C)CC3)n2)on1 , which call appears in the assay record?
inactive

Test call, this compound: C[C@@H](NC(=O)c1ncnc(N)c1Cl)c1ncc(C(=O)Nc2cc(C(F)(F)F)c(Cl)cn2)s1
inactive

What did this assay record as the result for COc1cc2ncnc(Oc3cccc(NC(=O)Nc4cc(C(C)(C)C(F)(F)F)on4)c3)c2cc1OC ?
inactive

Which outcome was assigned to Cc1csc(-c2nnc(Nc3ccc(Oc4ncccc4-c4ccnc(N)n4)cc3)c3ccccc23)c1 in this test?
active

###

# study_target: Serine/threonine-protein kinase MRCK alpha (Homo sapiens, UniProt Q5VT25); also: in the data inactive means no Kd found up to 30 µM
# Sequence (Q5VT25 whole entry): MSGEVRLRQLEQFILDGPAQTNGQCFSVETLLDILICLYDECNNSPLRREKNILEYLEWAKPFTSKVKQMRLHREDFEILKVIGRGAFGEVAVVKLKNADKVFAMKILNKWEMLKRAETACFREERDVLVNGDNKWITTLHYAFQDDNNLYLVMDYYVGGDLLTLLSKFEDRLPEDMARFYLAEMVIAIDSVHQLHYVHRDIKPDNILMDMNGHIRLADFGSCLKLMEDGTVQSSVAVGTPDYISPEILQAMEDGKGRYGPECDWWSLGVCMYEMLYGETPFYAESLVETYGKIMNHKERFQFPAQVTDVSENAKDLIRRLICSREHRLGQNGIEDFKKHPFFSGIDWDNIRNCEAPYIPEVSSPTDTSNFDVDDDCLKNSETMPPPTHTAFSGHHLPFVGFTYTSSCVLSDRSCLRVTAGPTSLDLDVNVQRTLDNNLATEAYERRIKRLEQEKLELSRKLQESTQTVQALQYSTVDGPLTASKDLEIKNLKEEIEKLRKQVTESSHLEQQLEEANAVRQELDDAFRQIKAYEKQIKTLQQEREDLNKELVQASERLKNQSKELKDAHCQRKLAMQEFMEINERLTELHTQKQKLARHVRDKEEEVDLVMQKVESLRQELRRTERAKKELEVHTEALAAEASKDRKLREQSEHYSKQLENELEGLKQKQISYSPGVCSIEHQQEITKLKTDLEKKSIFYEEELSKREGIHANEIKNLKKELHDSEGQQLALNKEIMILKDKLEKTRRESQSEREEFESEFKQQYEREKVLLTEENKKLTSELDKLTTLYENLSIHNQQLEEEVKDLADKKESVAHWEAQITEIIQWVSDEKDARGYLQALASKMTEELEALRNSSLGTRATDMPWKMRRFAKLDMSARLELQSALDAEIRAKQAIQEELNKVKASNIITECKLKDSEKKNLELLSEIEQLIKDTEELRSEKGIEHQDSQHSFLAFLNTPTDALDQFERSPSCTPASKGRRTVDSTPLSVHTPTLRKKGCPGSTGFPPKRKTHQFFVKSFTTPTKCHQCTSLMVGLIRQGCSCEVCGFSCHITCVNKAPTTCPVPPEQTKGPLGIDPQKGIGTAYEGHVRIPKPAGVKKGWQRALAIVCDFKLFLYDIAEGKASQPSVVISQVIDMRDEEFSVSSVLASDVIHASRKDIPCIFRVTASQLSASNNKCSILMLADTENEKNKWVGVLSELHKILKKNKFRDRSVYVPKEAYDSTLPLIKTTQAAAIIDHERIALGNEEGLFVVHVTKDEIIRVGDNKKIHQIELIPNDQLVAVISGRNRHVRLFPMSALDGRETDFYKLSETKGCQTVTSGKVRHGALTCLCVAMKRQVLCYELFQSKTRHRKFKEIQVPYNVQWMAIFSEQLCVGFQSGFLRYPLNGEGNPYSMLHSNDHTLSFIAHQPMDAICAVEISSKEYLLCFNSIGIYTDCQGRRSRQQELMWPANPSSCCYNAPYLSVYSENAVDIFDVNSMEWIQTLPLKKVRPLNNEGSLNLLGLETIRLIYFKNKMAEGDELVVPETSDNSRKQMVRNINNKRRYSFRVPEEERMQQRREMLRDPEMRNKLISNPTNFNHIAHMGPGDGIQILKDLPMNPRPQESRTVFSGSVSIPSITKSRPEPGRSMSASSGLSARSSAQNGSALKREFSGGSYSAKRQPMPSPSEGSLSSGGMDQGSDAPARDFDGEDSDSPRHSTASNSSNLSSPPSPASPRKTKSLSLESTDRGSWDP
Active and inactive are the calls of the source.
Response enum: active, inactive

Test call for this compound, please: COc1cc([C@@H]2c3cc4c(cc3[C@H](O)[C@H]3COC(=O)[C@@H]23)OCO4)cc(OC)c1OC [AXL-1717]
inactive

Dear colleague, could you share the recorded outcome for COc1cc2c(Nc3ccc(Cl)c(Cl)c3F)ncnc2cc1OC[C@@H]1C[C@@H]2CN(C)C[C@@H]2C1 [TESEVATINIB] when you have a moment?
inactive

# fetch the recorded call for COc1ncc(-c2ccc3nccc(-c4ccnnc4)c3c2)cc1NS(=O)(=O)c1ccc(F)cc1F [OMIPALISIB] here
inactive

Name the outcome recorded for CC(C)c1cc(CNc2nc(Nc3cc(C4CC4)[nH]n3)cc(N3CCN(C)CC3)n2)on1 [XL-228] in the assay.
inactive

Could you please tell me the result logged for FC(F)(F)c1ccc(/C=C/c2nc(COc3ccc(CCCCn4ccnn4)cc3)co2)cc1 [MUBRITINIB] in this assay?
inactive

Tell me the assay call for C[C@@H](NC(=O)c1ncnc(N)c1Cl)c1ncc(C(=O)Nc2cc(C(F)(F)F)c(Cl)cn2)s1 [TOVORAFENIB] please.
inactive

Fill in: this test's call for CN1CCN(CCOc2cc(OC3CCOCC3)c3c(Nc4c(Cl)ccc5c4OCO5)ncnc3c2)CC1 [SARACATINIB] is ___
inactive

Can you look up the reported call for CO[C@H]1C[C@@H]2CC[C@@H](C)[C@@](O)(O2)C(=O)C(=O)N2CCCC[C@H]2C(=O)O[C@H]([C@H](C)C[C@@H]2CC[C@@H](O)[C@H](OC)C2)CC(=O)[C@H](C)/C=C(\C)[C@@H](O)[C@@H](OC)C(=O)[C@H](C)C[C@H](C)/C=C/C=C/C=C/1C [SIROLIMUS] for me?
inactive

Each compound tested received a call. Report the one for C=CC(=O)Nc1cc2c(Nc3ccc(F)c(Cl)c3)ncnc2cc1C#CC(C)(C)N1CCN(C)CC1 [AV-412 FREE BASE] .
inactive

Could you please tell me the result logged for CNC(=O)c1cc(Oc2ccc(NC(=O)Nc3cc(C(C)(C)C)nn3-c3ccc4ncccc4c3)c(F)c2)ccn1 [REBASTINIB] in this assay?
inactive

// param item: Cc1cnc(NC(=O)Nc2cc(Br)c(C)cc2OC[C@@H]2CNCCO2)cn1 [RABUSERTIB] ; yields the recorded call
inactive

Tell me the recorded outcome of this test for CCCCCCCCCCCCCCCCCCOP(=O)([O-])OC1CC[N+](C)(C)CC1 [PERIFOSINE] .
inactive

Tell me the assay call for CC(=O)c1cnc2ccc(-c3cc(Cl)c(O)c(Cl)c3)nc2c1N[C@H]1CC[C@H](CN(C)C)CC1 please.
inactive

Per the records of this test, what outcome belongs to O=C(Cc1ccc(-c2ccc(OCCN3CCOCC3)cc2)cn1)NCc1ccccc1 [TIRBANIBULIN] ?
inactive

What did the test return for O=c1[nH]ccc2cc(OC3CCNCC3)ccc12 [SAR-407899 FREE BASE] ?
active

Numbers sourced from ChEMBL document CHEMBL3991601.
